# ASSAYED_TARGET: PYR1^M/ΔN-HAB1^T+ (Arabidopsis thaliana, UniProt O49686, H60P/N90S)
# Construct: made in house; host or cells: E. coli
# PROTOCOL: PYR1 ELISA-like plate assay, immobilized PYR1^M with biotinylated ΔN-HAB1^T+
# Format: binding
# CONDITION_SUMMARY: global nonlinear fit, PYR1^M/ABA/ΔN-HAB1^T+ system; Biorep 1; read-out: KD1

{"COMPOUND": "CC1=CC(=O)CC(C)(C)[C@@]1(O)/C=C/C(C)=C\\C(=O)O [ABA, abscisic acid]", "Kd, nM": 820}

----------
# ASSAYED_TARGET: PYR1^PIRI (Arabidopsis thaliana, UniProt O49686, A160T/E130G/F159T/K59R/N119S/S122Q/S92M/V174A)
# Construct: expressed in transfected cells; host or cells: S. cerevisiae (2µ plasmid)
# Sequence (O49686 1-191 K59R/S92M/N119S/S122Q/E130G/F159T/A160T/V174A): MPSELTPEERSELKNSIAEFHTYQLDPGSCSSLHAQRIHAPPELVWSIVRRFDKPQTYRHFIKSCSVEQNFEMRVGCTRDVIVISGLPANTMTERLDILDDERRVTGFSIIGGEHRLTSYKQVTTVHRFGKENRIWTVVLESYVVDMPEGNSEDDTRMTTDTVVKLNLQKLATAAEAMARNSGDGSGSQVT
# Sequence (Q9CAJ0 178-511 partner): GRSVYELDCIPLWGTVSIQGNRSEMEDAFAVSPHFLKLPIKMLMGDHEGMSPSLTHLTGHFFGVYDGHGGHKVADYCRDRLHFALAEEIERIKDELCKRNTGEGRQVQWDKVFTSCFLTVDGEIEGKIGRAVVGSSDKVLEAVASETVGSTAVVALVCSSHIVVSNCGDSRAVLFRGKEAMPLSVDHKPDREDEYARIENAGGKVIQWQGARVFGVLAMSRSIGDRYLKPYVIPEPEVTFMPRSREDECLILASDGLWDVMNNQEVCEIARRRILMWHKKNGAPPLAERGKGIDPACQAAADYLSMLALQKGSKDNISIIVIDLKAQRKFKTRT
# PROTOCOL: cell-based
pEC50: −log10 of the molar value.

{"STRUCTURE_SMILES_STRING": "CCN(CC)c1nc(C)cc(OP(=S)(OC)OC)n1", "pEC50": 7.70}
